Task for the reader: assign each of the following binders its reported koff.
molecular target: T1, recombinant C-terminally His-tagged human CD47 (extracellular domain) (human, UniProt Q08722 19-141); assay: SPR, Biacore X100; antibody captured by anti-human Fc on a CM5 chip, CD47 extracellular domain as analyte, 1:1 fit
T1 construct: also called recombinantly expressed human CD47 extracellular domain
T1 sequence (Q08722 19-141): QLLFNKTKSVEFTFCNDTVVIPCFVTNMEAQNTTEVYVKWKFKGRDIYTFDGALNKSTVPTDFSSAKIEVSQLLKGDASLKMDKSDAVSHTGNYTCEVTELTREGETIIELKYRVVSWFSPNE
Write the number in s⁻¹ without appending the unit.

Entry 2D6-066 (antibody, IgG1, V domains shown, hIgG1 (humanized IgG1); only the variable domains are tied to the construct; also called VH2.4/VL2) VH: QVELVQSGPEVKKPGSSVKVSCKASGYTFPSYDINWVRQRPGQGLEWMGWIIPRDGSPKYNEKFKGRVTITADTSTSTAYMELHSLRSEDTAVYYCARSVYYGTQFAYWGQGTLVTVSA VL: DIVMTQSPSSLAVSLGERVTMSCKSSQSLLNSRTRKNYLAWYQQKPGQPPKLLIYWASTRDSGVPDRFSGSGSGTDFTLTISSLQAEDVAVYYCKQSFNLVTFGGGTKLEIK : reported koff = ? 0.32

Which koff value is on record for 2D6-005 (antibody, IgG4, V domains shown, hIgG4 (humanized IgG4), human kappa constant light chain from vector; only the variable domains are tied to the construct; also called VH2/VL1) VH: QVELVQSGPEVKKPGSSVKVSCKASGYTFPSYDINWVRQRPGQGLEWMGWIYPRDGSPKYNEKFKGRVTITADTSTSTAYMELHSLRSEDTAVYYCARSVYYGTQFAYWGQGTLVTVSA VL: DIVLTQSPSSLSASVGDRVTMSCKSSQSLLNSRTRKNYLAWYQQKPGKAPKLLIYWASTRDSGVPSRFSGSGSGTDFTLTISSLQPEDIATYYCKQSFNLVTFGGGTKLEIK ? 0.13
